test: Solubility of TMB in different solvents; format: physicochemical; details: organic solvent or mixture, solvent Ethyl acetate
Property measured: solubility (mM)

Cc1cc(-c2cc(C)c(N)c(C)c2)cc(C)c1N
10

----------
Assay: Solubility of TMB in different solvents
Assay type: physicochemical
Details: organic solvent or mixture, solvent Methanol
From the text: The following Table 1 presents results regarding the solubility of TMB in different solvents.
Property measured: solubility (mM)

Cc1cc(-c2cc(C)c(N)c(C)c2)cc(C)c1N
5.2

----------
assay: Solubility of TMB in different solvents; type: physicochemical; conditions: organic solvent or mixture, solvent Dimethylsulfonamide
Property measured: solubility (µM)

Cc1cc(-c2cc(C)c(N)c(C)c2)cc(C)c1N
1600

----------
Assay: Solubility of TMB in different solvents
Type: physicochemical
Details: water, solvent Water
Excerpt: The following Table 1 presents results regarding the solubility of TMB in different solvents.
Property measured: solubility (µM)

Cc1cc(-c2cc(C)c(N)c(C)c2)cc(C)c1N [TMB, 3,3′,5,5′-tetramethylbenzidine]
100
